Kindly supply the reported protein stability index values for the records listed here.
B1: PTPLAD1 (parent)
chain: YINFRHLYKQRRRRYGQKKKKIH

- Variants of: B1
- assay_method_text: protein stability index of a GFP-peptide fusion (GPS, HEK-293T) (PSI 1-6); higher = more stable;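 also: lentivirally expressed fusions sorted by FACS into six bins by GFP to DsRed ratio, PSI derived from sequencing read proportions per bin multiplied by bin number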
- run_parameters: c terminus: native
# print the numeric value only

Lab note: K9W gave protein stability index of 2.45

Lab note: R11Q gave protein stability index of 2.37

Lab note: I22N gave protein stability index of 1.9

Lab note: R5W gave protein stability index of 1.55

Lab note: G16C gave protein stability index of 2.27

Lab note: F4D gave protein stability index of 3.02

Lab note: F4W gave protein stability index of 1.1

Lab note: K21Q gave protein stability index of 1.39

Lab note: Q10E gave protein stability index of 1.96

Lab note: H6V gave protein stability index of 2.06

Lab note: H6C gave protein stability index of 2.14

Lab note: Q10W gave protein stability index of 1.8

Lab note: I2G gave protein stability index of 2.19

Lab note: H23W gave protein stability index of 2.25

Lab note: Y8D gave protein stability index of 3.25

Lab note: K18R gave protein stability index of 1.97

Lab note: K20S gave protein stability index of 1.69

Lab note: R12P gave protein stability index of 1.96

Lab note: R11G gave protein stability index of 2.54

Lab note: R11D gave protein stability index of 1.39

Lab note: Y15M gave protein stability index of 1.37

Lab note: R5S gave protein stability index of 1.17

Lab note: R11A gave protein stability index of 1.72

Lab note: Y8C gave protein stability index of 2.01

Lab note: R12L gave protein stability index of 1.25

Lab note: R5D gave protein stability index of 2.02

Lab note: K21D gave protein stability index of 1.33

Lab note: K9H gave protein stability index of 2.17

Lab note: N3P gave protein stability index of 2.09

Lab note: L7I gave protein stability index of 1.94
